System: 349418-098-R-PDC complex spheroid viability
Test: Anticancer human tumor 349418-098-R-PDC patient-derived lung adenocarcinoma cell line growth inhibition [RAS]; active = viability on the fitted dose curve at most 10% of control; inactive = the rest
Conditions: second compound 0.3 µM; first compound 1 µM
Outcome codes: 1.0 for active, 0.0 for inactive

# Compound, Assigned Class
measured = [
    ("CC(C)NCC(C(=O)N1CCN(c2ncnc3c2C(C)CC3O)CC1)c1ccc(Cl)cc1 (stereo not drawn) + CCn1c(-c2cc(N3CCN(C)CC3)cnc2C(C)OC)c2c3cc(ccc31)-c1csc(n1)CC(NC(=O)C1CC1C)C(=O)N1CCCC(N1)C(=O)OCC(C)(C)C2", 0.0),
    ("CC(Nc1ccc2c(c1)OCCn1cc(N3C(=O)OCC3C(F)F)nc1-2)C(N)=O (stereo not drawn) + CCn1c(-c2cccnc2C(C)OC)c2c3cc(ccc31)N1CCOC(CC(NC(=O)C(C(C)C)N(C)C(=O)C3(F)CCN(C(=O)C#CC(C)(C)N(C)C)CC3)C(=O)N3CCCC(N3)C(=O)OCC(C)(C)C2)C1", 0.0),
    ("Nc1ccn(C2OC(CO)C(O)C2(F)F)c(=O)n1 (stereo not drawn) + CCn1c(-c2cccnc2C(C)OC)c2c3cc(ccc31)N1CCOC(CC(NC(=O)C(C(C)C)N(C)C(=O)C3(F)CCN(C(=O)C#CC(C)(C)N(C)C)CC3)C(=O)N3CCCC(N3)C(=O)OCC(C)(C)C2)C1", 1.0),
    ("C=CC(=O)Nc1cc(Nc2nccc(-c3cn(C)c4ccccc34)n2)c(OC)cc1N(C)CCN(C)C + CCn1c(-c2cc(N3CCN(C)CC3)cnc2C(C)OC)c2c3cc(ccc31)-c1csc(n1)CC(NC(=O)C1CC1C)C(=O)N1CCCC(N1)C(=O)OCC(C)(C)C2", 0.0),
    ("Cc1nc(N2CCC3(CC2)COC(C)C3N)c(CO)nc1Sc1ccnc(N)c1Cl (stereo not drawn) + CCn1c(-c2cc(N3CCN(C)CC3)cnc2C(C)OC)c2c3cc(ccc31)-c1csc(n1)CC(NC(=O)C1CC1C)C(=O)N1CCCC(N1)C(=O)OCC(C)(C)C2", 0.0),
    ("CC1(O)CCCC1n1c(=O)c(C(F)F)cc2cnc(NC3CCN(S(C)(=O)=O)CC3)nc21 (stereo not drawn) + CCn1c(-c2cc(N3CCN(C)CC3)cnc2C(C)OC)c2c3cc(ccc31)-c1csc(n1)CC(NC(=O)C1CC1C)C(=O)N1CCCC(N1)C(=O)OCC(C)(C)C2", 0.0),
    ("CC(Nc1ccc2c(c1)OCCn1cc(N3C(=O)OCC3C(F)F)nc1-2)C(N)=O (stereo not drawn) + CCn1c(-c2cc(N3CCN(C)CC3)cnc2C(C)OC)c2c3cc(ccc31)-c1csc(n1)CC(NC(=O)C1CC1C)C(=O)N1CCCC(N1)C(=O)OCC(C)(C)C2", 0.0),
    ("CCC(CC)c1cc(NC2CCC(N)C2)n2nccc2n1 (stereo not drawn) + CCn1c(-c2cc(N3CCN(C)CC3)cnc2C(C)OC)c2c3cc(ccc31)-c1csc(n1)CC(NC(=O)C1CC1C)C(=O)N1CCCC(N1)C(=O)OCC(C)(C)C2", 0.0),
]

====

Test system: 349418-098-R-PDC complex spheroid viability
Test: Anticancer human tumor 349418-098-R-PDC cell line growth inhibition [RAS]; active means viability on the fitted dose curve at most 10% of control; inactive means the rest;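 also: spheroids exposed to compound for seven days before viability readout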
Conditions: second compound 0.003 µM; first compound 0.1 µM
Outcome codes: active, inactive

# Molecule, Assigned Class
records = [
    ("O=C(c1ccc(F)c(F)c1Nc1ccc(I)cc1F)N1CC(O)([C@@H]2CCCCN2)C1 + CCn1c(-c2cccnc2C(C)OC)c2c3cc(ccc31)N1CCOC(CC(NC(=O)C(C(C)C)N(C)C(=O)C3(F)CCN(C(=O)C#CC(C)(C)N(C)C)CC3)C(=O)N3CCCC(N3)C(=O)OCC(C)(C)C2)C1", "inactive"),
    ("CC(C)n1nc(-c2ccc3oc(N)nc3c2)c2c(N)ncnc21 + CCn1c(-c2cccnc2C(C)OC)c2c3cc(ccc31)N1CCOC(CC(NC(=O)C(C(C)C)N(C)C(=O)C3(F)CCN(C(=O)C#CC(C)(C)N(C)C)CC3)C(=O)N3CCCC(N3)C(=O)OCC(C)(C)C2)C1", "active"),
    ("C=CC(=O)Nc1cc(Nc2nccc(-c3cn(C)c4ccccc34)n2)c(OC)cc1N(C)CCN(C)C + CCn1c(-c2cccnc2C(C)OC)c2c3cc(ccc31)N1CCOC(CC(NC(=O)C(C(C)C)N(C)C(=O)C3(F)CCN(C(=O)C#CC(C)(C)N(C)C)CC3)C(=O)N3CCCC(N3)C(=O)OCC(C)(C)C2)C1", "inactive"),
    ("CCC(CC)c1cc(NC2CCC(N)C2)n2nccc2n1 (stereo not drawn) + CCn1c(-c2cc(N3CCN(C)CC3)cnc2C(C)OC)c2c3cc(ccc31)-c1csc(n1)CC(NC(=O)C1CC1C)C(=O)N1CCCC(N1)C(=O)OCC(C)(C)C2", "inactive"),
    ("CC(=O)OC12COC1CC(O)C1(C)C(=O)C(O)C3=C(C)C(OC(=O)C(O)C(NC(=O)OC(C)(C)C)c4ccccc4)CC(O)(C(OC(=O)c4ccccc4)C21)C3(C)C (stereo not drawn) + CCn1c(-c2cc(N3CCN(C)CC3)cnc2C(C)OC)c2c3cc(ccc31)-c1csc(n1)CC(NC(=O)C1CC1C)C(=O)N1CCCC(N1)C(=O)OCC(C)(C)C2", "inactive"),
    ("C=CC(=O)N1CCN(c2nc(OCC3CCCN3C)nc3c(F)c(-c4nc(N)cc(C)c4C(F)(F)F)c(Cl)cc23)C(C)C1 (stereo not drawn) + CCn1c(-c2cc(N3CCN(C)CC3)cnc2C(C)OC)c2c3cc(ccc31)-c1csc(n1)CC(NC(=O)C1CC1C)C(=O)N1CCCC(N1)C(=O)OCC(C)(C)C2", "inactive"),
    ("CCC(CC)c1cc(NC2CCC(N)C2)n2nccc2n1 (stereo not drawn) + CCn1c(-c2cccnc2C(C)OC)c2c3cc(ccc31)N1CCOC(CC(NC(=O)C(C(C)C)N(C)C(=O)C3(F)CCN(C(=O)C#CC(C)(C)N(C)C)CC3)C(=O)N3CCCC(N3)C(=O)OCC(C)(C)C2)C1", "inactive"),
    ("CCN1CCN(Cc2ccc(Nc3ncc(F)c(-c4cc(F)c5nc(C)n(C(C)C)c5c4)n3)nc2)CC1 + CCn1c(-c2cccnc2C(C)OC)c2c3cc(ccc31)N1CCOC(CC(NC(=O)C(C(C)C)N(C)C(=O)C3(F)CCN(C(=O)C#CC(C)(C)N(C)C)CC3)C(=O)N3CCCC(N3)C(=O)OCC(C)(C)C2)C1", "inactive"),
]
